Overview of recorded EC50 for various molecules
# Test system: H4
# method.notes: Luminescence Cell-Based Dose Response HTS to Identify Activators of 5'UTR Stem-Loop Driven Prion Protein mRNA Translation in H4 Neuroglioblastoma Cells. [Related pubchem assays: 1829 (Project Summary), 1814 (Primary HTS)]
# Assay type: functional
# condition.details: Homo sapiens
Calls of active or inactive are those of the source. Rule as the data show it: actives have a measured EC50 and inactives only a lower limit.
reported.endpoint: EC50

>>> value_reported("CCOC(=O)c1ccc(-c2ccc(/C=N/NC(=O)c3cncc(Br)c3)o2)cc1")
"117 µM (active)"
>>> value_reported("O=C(CN1C(=O)C2C3C=CC(C3)C2C1=O)Nc1ccc2c(c1)OCCO2 (stereo not given)")
"19 µM (active)"
>>> value_reported("CCOc1ccc(N2C(=O)/C(=C/c3ccccc3)N=C2SC)cc1")
"108 µM (active)"
>>> value_reported("c1ccc(CNc2ncnc3c2cnn3-c2ccccc2)cc1")
"> 120 µM (not active)"
>>> value_reported("O=c1c2ccccc2nnn1COc1ccc(Cl)cc1Br")
"15.6 µM (active)"
